# Test system: HepG2
# protocol-details: GSK_TCMDC: Percent inhibition of human HepG2 cell line. Test compounds present at 10uM.
# Assay type: functional
hey, just use Fulfilled if measured Inhibition is less than 10%, otherwise Not fulfilled

# compound, qualitative-label
records = [
    ("CN(C)c1ccc2c(c1)Sc1cc(N(C)C)ccc1N2C(=O)c1cccc(C(=O)O)c1", "Fulfilled"),
]

Lab note: confirm whether the reported Inhibition for this compound is below 10%, equality not counting. compound: CC(C)c1ccc(NC(=O)c2ccc(C(=O)NC3CCN(CC4CCCCC4)C3)cc2)cc1.O=C(O)C(F)(F)F (centres undefined) Not fulfilled

Queued: `Oc1cccc(-c2cnc3ccc(NCc4ccc(F)cc4)nn23)c1` Fulfilled
